Just for reference, patent US9492405B2 is where these values come from.

experiment: in vivo; settings: male, Sprague-Dawley, rat, plasma, iv, 5 mg/kg, Plasma concentration, Average, IV 5 mg/kg, 360 min
readout_label: concentration at 360 min

[Q] Report measured concentration at 360 min; entry is C[C@@H](Cc1cccc2ccccc12)NC[C@H](O)c1cc(O)cc(O)c1.O=C(O)/C=C/C(=O)O [(R,S)-5, fumarate]
[A] 90 ng/mL

* * *

A collection of compounds and their measured half-life
assay: in vivo; details: male, Sprague-Dawley, rat, plasma, iv, 5 mg/kg
Form entry: value (min) — number only.

compound: C[C@H](Cc1ccc(O)cc1)NC[C@H](O)c1cc(O)cc(O)c1 [(R,R)-1, (R,R)-(−)-Fenoterol]
half-life (min): 12.2

[Q] Report measured half-life; entry is C[C@@H](Cc1cccc2ccccc12)NC[C@H](O)c1cc(O)cc(O)c1.O=C(O)/C=C/C(=O)O [(R,S)-5]
[A] 18.1
